Data provenance: patent US20140348834A1

- system: cyno IL-17A (cynomolgus monkey, UniProt A0A2K5TTB0 24-155)
- Sequence (A0A2K5TTB0 entry or part of it): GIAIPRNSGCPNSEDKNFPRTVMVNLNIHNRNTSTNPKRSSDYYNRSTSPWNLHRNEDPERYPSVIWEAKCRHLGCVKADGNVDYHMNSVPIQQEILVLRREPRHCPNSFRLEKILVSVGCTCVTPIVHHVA
- assay notes: SPR Biacore, captured binder
experimental endpoint: koff (s⁻¹)

- IL17-TN-L7-G9 (antibody, V domains shown, Fully human antibody) VH: EVQLLESGGGVVQPGRSLRLSCAASGFIFSNYGMHWVRQAPGKGLEWVAVISYDGSNKYYADSVKGRFTISRDNSKNTLYLEMNSLRPEDTAVYYCAKVGASGDYYYSYGLDVWGQGTTVTVSS VL: QSGLTQPPSASGTPGQTVSISCSGSNSNIGSHSVNWYQQVPGAAPKLLMYGIGQRPSGVPDRFSVSQSGTSASLAISGLQSEDEADYYCATWDDSLGGYVFGSGTKVTVLG: 0.000199
- IL17-B6-5 (antibody, V domains shown, also called pJP243 B6.1 #5VH / pJP244 B6.1 #5VK) VH: EVQLVQSGAEVKKPGESVKISCKASGGSFRSYGISWVRQAPGQGLEWMGGITHFFGITDYAQKFQGRVTITADESTTTAYMELSGLTSDDTAVYYCAREPNDFWNGYYDTHDFDSWGQGTTVTVSS VL: EIVLTQSPDFQSVTPKEKVTITCRASQNIGSELHWYQQKPDQSPKLLIKYASHSISGVPSRFSGSGSGTDFTLTINGLEAEDAATYYCHQSDTLPHTFGQGTKVDIK: 6.52e-05
